Molecular target: T1, full-length mouse TF with a C-terminal FLAG tag on Flp-In-CHO cells (mouse, UniProt P20352 29-294)
T1 construct: also called CHO-mTF; mouse TF-positive CHO cells
Experiment: flow cytometry, antibody titration on CHO cells expressing mouse TF, 4-parameter fit of MFI
observable: EC50 (nM)

• 43B1 (antibody, human IgG1, V domains shown, Human IgG1; also called antibody designated 43B1) VH: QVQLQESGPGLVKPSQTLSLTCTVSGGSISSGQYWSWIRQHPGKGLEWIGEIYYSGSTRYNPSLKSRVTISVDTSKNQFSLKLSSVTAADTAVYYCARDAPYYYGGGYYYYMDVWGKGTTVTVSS VL: EIVLTQSPGTLSLSPGERATLSCRASESVDSSYLAWYQQKPGQAPRLLIYGASTRQTGIPDRFSGSGSGTDFTLTISRLEPEDFAVYYCQQAGVVPYTFGGGTKVEIK = 255
